Molecular target: human A3AR (Homo sapiens, UniProt P0DMS8)
Construct: host or cells: CHO-K1 (CHO-ADORA3)
Sequence (P0DMS8 1-318): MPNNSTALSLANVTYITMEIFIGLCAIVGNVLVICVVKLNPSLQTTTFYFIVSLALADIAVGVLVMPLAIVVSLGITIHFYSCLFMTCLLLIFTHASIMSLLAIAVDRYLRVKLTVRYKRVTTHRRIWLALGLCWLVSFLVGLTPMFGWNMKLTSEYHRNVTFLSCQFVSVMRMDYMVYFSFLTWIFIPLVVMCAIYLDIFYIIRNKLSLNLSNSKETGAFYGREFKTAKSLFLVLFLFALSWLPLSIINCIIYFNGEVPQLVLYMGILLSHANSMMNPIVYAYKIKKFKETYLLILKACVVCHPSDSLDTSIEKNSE
Experiment: A3AR cell-based functional assay (A3AR-mediated cAMP production, CHO-ADORA3 cells)
Conditions: IC50 (half-maximal inhibitory concentration), target A3AR; cAMP level of ADORA3-CHO cells elicited by NECA

compound	IC50
CC1(O)CCC2C3CCC4=CC(=O)CCC4C3CCC21C (stereo not shown)	> 10 µM
